Target: UniProt:Q9NP59
Sequence (Q9NP59 1-571): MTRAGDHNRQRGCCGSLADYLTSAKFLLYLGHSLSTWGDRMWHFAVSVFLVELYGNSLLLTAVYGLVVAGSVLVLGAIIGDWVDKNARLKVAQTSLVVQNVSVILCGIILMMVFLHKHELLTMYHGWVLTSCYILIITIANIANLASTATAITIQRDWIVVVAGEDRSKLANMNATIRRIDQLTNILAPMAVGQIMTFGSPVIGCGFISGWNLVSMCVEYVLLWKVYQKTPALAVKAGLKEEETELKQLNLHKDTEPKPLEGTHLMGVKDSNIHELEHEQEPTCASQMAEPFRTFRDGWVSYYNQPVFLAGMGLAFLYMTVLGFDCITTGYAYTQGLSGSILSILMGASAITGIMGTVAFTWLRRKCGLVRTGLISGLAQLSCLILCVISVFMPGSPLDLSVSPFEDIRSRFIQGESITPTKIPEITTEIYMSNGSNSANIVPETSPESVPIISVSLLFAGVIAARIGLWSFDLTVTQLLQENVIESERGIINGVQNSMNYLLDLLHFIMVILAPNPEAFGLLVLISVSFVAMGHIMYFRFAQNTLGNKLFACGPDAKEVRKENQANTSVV
Experiment: ferroportin internalization assay (inhibition of hepcidin-induced internalization of Fpn)
Conditions: MDCK-FPN-HaloTag cells, 100 nM hepcidin, overnight incubation; concentration range from 0.04 to 40 μM
// returns n unless IC50 is strictly below 3 µM, in which case y

Some entries whose results are on file:
[[record]]
compound = "CN(C)c1ccc2c(c1)-c1ccc3cccnc3c1NS2(=O)=O [Example 502]"
cat = "y"

[[record]]
compound = "COc1ccc(C2c3ccc4cccnc4c3NS(=O)(=O)N2C)c(OC)c1 (stereo not drawn) [Example 394]"
cat = "y"

[[record]]
compound = "O=C(c1ccc2c(c1)-c1cc(Cl)c3cccnc3c1NS2(=O)=O)N1CCOCC1 [Example 527]"
cat = "y"

[[record]]
compound = "CN1C(c2ccc(F)c(C(=O)O)c2)c2ccc3cccnc3c2NS1(=O)=O (stereo not drawn) [Example 424]"
cat = "n"

[[record]]
compound = "O=S(=O)(Nc1cc(F)c(F)c2cccnc12)c1ccccc1 [Example 97]"
cat = "n"

[[record]]
compound = "O=S1(=O)Nc2c(cc(Br)c3cccnc23)-c2ccccc21 [Example 545]"
cat = "n"


hey, is IC50 for O=S(=O)(Nc1cc(F)cc2cccnc12)c1c(F)cccc1F [Example 94] lower than 3 µM or not?
y

hey, is IC50 for O=S1(=O)Nc2c(cc(F)c3cccnc23)-c2cc(C(F)(F)F)ccc21 [Example 306] lower than 3 µM or not?
n

hey, is IC50 for O=S1(=O)Nc2c(cc(Cl)c3cccnc23)-c2cc(NCCN3CCOCC3)ccc21 [Example 511] lower than 3 µM or not?
y

====

Target: human ferroportin (Homo sapiens, UniProt Q9NP59)
Assay: ferroportin internalization assay (inhibition of hepcidin-induced internalization of Fpn)
Details: MDCK-FPN-HaloTag cells, 100 nM hepcidin, overnight incubation; concentration range from 0.04 to 40 μM
// returns no unless IC50 is strictly below 2000 nM, in which case yes

Some entries whose results are on file:
[[record]]
compound = "CN1C(c2ccc(F)c(CN3CCNCC3)c2)c2ccc3cccnc3c2NS1(=O)=O (stereo not drawn) [Example 427]"
cat = "no"

[[record]]
compound = "COCCNc1cc2c(c3ncccc13)NS(=O)(=O)c1ccccc1-2 [Example 548]"
cat = "no"

[[record]]
compound = "COCCN(C)c1cc2c(c3ncccc13)NS(=O)(=O)c1ccccc1-2 [Example 554]"
cat = "yes"

[[record]]
compound = "O=C(c1ccc2c(c1)-c1cc(Cl)c3cccnc3c1NS2(=O)=O)N1CCC(O)C1 (stereo not drawn) [Example 531]"
cat = "no"

[[record]]
compound = "O=S1(=O)Nc2c(ccc3cccnc23)-c2ccc(F)cc21 [Example 330]"
cat = "yes"


hey, is IC50 for COc1ccc2c(c1)-c1ccc3cccnc3c1NS2(=O)=O [Example 105] lower than 2000 nM or not?
yes

hey, is IC50 for Cc1ccc(S(=O)(=O)Nc2ccc(Cl)c3cccnc23)c(N)c1 [Example 79] lower than 2000 nM or not?
yes

hey, is IC50 for COc1ccc(C2c3ccc4cccnc4c3NS(=O)(=O)N2C)cc1 (stereo not drawn) [Example 390] lower than 2000 nM or not?
no

====

Recorded pIC50 for the following molecules
Molecular target: human ferroportin (Homo sapiens)
Sequence (Q9NP59 1-571): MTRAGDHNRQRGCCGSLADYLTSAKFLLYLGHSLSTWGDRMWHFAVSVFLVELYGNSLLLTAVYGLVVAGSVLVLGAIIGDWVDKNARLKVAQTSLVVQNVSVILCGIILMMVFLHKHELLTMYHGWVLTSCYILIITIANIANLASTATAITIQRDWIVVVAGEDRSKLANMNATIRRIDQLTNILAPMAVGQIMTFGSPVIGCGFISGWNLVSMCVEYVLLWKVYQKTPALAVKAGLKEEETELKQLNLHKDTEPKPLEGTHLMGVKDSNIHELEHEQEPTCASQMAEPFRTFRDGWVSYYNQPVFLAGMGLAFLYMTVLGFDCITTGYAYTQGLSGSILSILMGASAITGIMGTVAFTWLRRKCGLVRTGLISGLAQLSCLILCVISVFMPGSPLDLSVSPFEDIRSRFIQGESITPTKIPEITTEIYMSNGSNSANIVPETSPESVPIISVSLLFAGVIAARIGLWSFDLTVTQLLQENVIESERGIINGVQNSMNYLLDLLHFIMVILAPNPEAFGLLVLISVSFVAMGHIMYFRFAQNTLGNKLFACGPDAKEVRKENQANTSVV
Assay: ferroportin internalization assay (inhibition of hepcidin-induced internalization of Fpn)
Conditions: MDCK-FPN-HaloTag cells, 100 nM hepcidin, overnight incubation; concentration range from 0.04 to 40 μM
# reply with the number alone; pIC50 is -log10 of concentration in mol/L

Give recorded pIC50. O=S(=O)(Nc1ccc(F)c2cccnc12)c1ccccc1 [Example 98]
6.01

Give recorded pIC50. CCN(CC)c1ccc2c(c1)-c1cc(Cl)c3cccnc3c1NS2(=O)=O [Example 505]
5.66

Give recorded pIC50. CC(C)C(=O)Nc1cc(C(F)(F)F)ccc1S(=O)(=O)Nc1cccc2cccnc12 [Example 61]
5.00

Give recorded pIC50. O=S(=O)(Nc1ccc(C(F)(F)F)c2cccnc12)c1ccccc1 [Example 91]
5.98

Give recorded pIC50. O=S(=O)(Nc1cccc2cccnc12)c1ccccc1Cl [Example 11]
5.10

====

Biological target: human ferroportin (Homo sapiens)
Assay: ferroportin internalization assay (inhibition of hepcidin-induced internalization of Fpn)
Conditions: MDCK-FPN-HaloTag cells, 100 nM hepcidin, overnight incubation; concentration range from 0.04 to 40 μM
Method: The hepcidin-antagonistic action of the sulfonaminoquinoline compounds of the present invention was determined by means of the “ferroportin internalization assay” described in the following. Organic compounds of low molecular weight which counteract the biological actions of hepcidin on its receptor, the iron exporter ferroportin (Fpn), were identified on the basis of their ability to inhibit hepcidin-induced internalization of Fpn in living cells. […]
Metric: pIC50
# reply with the number alone; pIC50 is -log10 of concentration in mol/L

Give recorded pIC50. Nc1ccc2c(c1)-c1cc(Cl)c3cccnc3c1NS2(=O)=O
5.45

Give recorded pIC50. O=S(=O)(Nc1cccc2cccnc12)c1c(F)cccc1F
5.94

Give recorded pIC50. O=S1(=O)Nc2c(cc(NCCN3CCOCC3)c3cccnc23)-c2ccccc21
4.66

Give recorded pIC50. COc1ccc(C2c3ccc4cccnc4c3NS(=O)(=O)N2C)cc1F (centres unmarked)
5.83

Give recorded pIC50. O=S1(=O)Nc2c(ccc3cccnc23)-c2cc(C(F)(F)F)ccc21
6.89

====

Molecular target: human ferroportin (Homo sapiens)
Assay: ferroportin internalization assay (inhibition of hepcidin-induced internalization of Fpn)
Details: MDCK-FPN-HaloTag cells, 100 nM hepcidin, overnight incubation; concentration range from 0.04 to 40 μM
Recorded IC50 for the following compounds
Provide the reading as a plain figure in nM.

Worked examples, 5 compounds total:
[[record]]
compound = "Cc1ccc2c(c1)S(=O)(=O)Nc1c-2ccc2cccnc12"
val = 360

[[record]]
compound = "Cc1cc2c(c3ncccc13)NS(=O)(=O)c1ccccc1-2"
val = 599

[[record]]
compound = "Cc1cccc(S(=O)(=O)Nc2cccc3cccnc23)n1"
val = 15400

[[record]]
compound = "O=S1(=O)Nc2c(cc(N3CCCCC3)c3cccnc23)-c2ccccc21"
val = 1560

[[record]]
compound = "O=S(=O)(Nc1cccc2cccnc12)c1ccccc1OC(F)(F)F"
val = 2500


Switching to the query record.
Give recorded IC50. O=S(=O)(Nc1cccc2cccnc12)c1c(Cl)cc(Cl)cc1Cl
857

====

Target: human ferroportin (Homo sapiens)
Experiment: ferroportin internalization assay (inhibition of hepcidin-induced internalization of Fpn)
Details: MDCK-FPN-HaloTag cells, 100 nM hepcidin, overnight incubation; concentration range from 0.04 to 40 μM
Recorded IC50 for the following molecules
Provide the reading as a plain figure in nM.

Worked examples, 5 molecules total:
[[record]]
molecule = "Cc1ccc(NS(=O)(=O)c2ccccc2)c2ncccc12"
target_or_system = "human ferroportin (Homo sapiens)"
metric = "IC50"
val = 1100

[[record]]
molecule = "O=S1(=O)Nc2c(cc(Cl)c3cccnc23)-c2cc(OC3CCCC3)ccc21"
target_or_system = "human ferroportin (Homo sapiens)"
metric = "IC50"
val = 420

[[record]]
molecule = "O=S1(=O)Nc2c(cc(C(F)(F)F)c3cccnc23)-c2cc(Cl)ccc21"
target_or_system = "human ferroportin (Homo sapiens)"
metric = "IC50"
val = 8510

[[record]]
molecule = "COc1cc2c(c3ncccc13)NS(=O)(=O)c1ccc(C(F)(F)F)cc1-2"
target_or_system = "human ferroportin (Homo sapiens)"
metric = "IC50"
val = 960

[[record]]
molecule = "Cc1cc(F)ccc1C1c2ccc3cccnc3c2NS(=O)(=O)N1C (centres unmarked)"
target_or_system = "human ferroportin (Homo sapiens)"
metric = "IC50"
val = 1500


Give recorded IC50. O=S(=O)(Nc1cccc2cccnc12)c1cccnc1
3640

Give recorded IC50. O=S(=O)(Nc1cccc2cccnc12)c1cncc(C(F)(F)F)c1
3980

Give recorded IC50. CN1C(c2ccccc2)c2ccc3cccnc3c2NS1(=O)=O (centres unmarked)
870

Give recorded IC50. N#Cc1ccccc1S(=O)(=O)Nc1cccc2cccnc12
815

Give recorded IC50. CN1C(c2ccc(C(F)(F)F)cc2)c2ccc3cccnc3c2NS1(=O)=O (centres unmarked)
1370

Give recorded IC50. Cc1cnc2c(NS(=O)(=O)c3ccccc3)cccc2c1
610

Give recorded IC50. Cc1ccc(S(=O)(=O)Nc2cccc3cccnc23)c(N)c1
300
